The values you see were collected from patent US6737383B1.

- System: wheat
- assay_remarks: Test B pre/postemergence wheat
- Type: in vivo, Triticum aestivum
- condition: Rate 250 g/ha, Postemergence; scale 0 to 10, 0 is no effect, 10 is complete control
parameter_measured: Plant response rating, Wheat
Numbers only.

Consider the following illustrative entries.
>  <smiles_representation>
CCc1noc(CC)c1-n1c(=O)on(C(=O)N(c2ccc(F)cc2)C(C)C)c1=O

>  <Plant response rating, Wheat>
0

$$$$
>  <smiles_representation>
CC(C)N(C(=O)n1oc(=O)n(Cc2cccs2)c1=O)c1ccccc1

>  <Plant response rating, Wheat>
0

$$$$
>  <smiles_representation>
CCn1c(=O)on(C(=O)N(c2ccc(Cl)cc2)C(C)C)c1=O

>  <Plant response rating, Wheat>
0

$$$$

Please examine the following record next.
Recorded Plant response rating, Wheat (compound C=CCn1c(=O)on(C(=O)N(c2ccccc2)C(C)C)c1=O ): 4
